Test system: Adjuvant Arthritis In Rats
Test: Adjuvant-induced arthritis in rats (chronic inflammation accompanied by joint destruction)
Assay type: in vivo, Royal Hart, Wistar strain rats
Details: oral 50 mg./kg. once daily days 0-13; Day 14
PROPERTY NAME: Mean Weight Gain (grams) Day 14

The examples below pair each entry with its known result.
INPUT: Quick one: Mean Weight Gain (grams) Day 14 for `CC(C)(C)C(C)(C)Nc1nc(NC(C)(C)C(C)(C)C)nc(N2CC3CCC(CC3)C2)n1` ?
OUTPUT: 56 grams

INPUT: Quick one: Mean Weight Gain (grams) Day 14 for CC(C)(C)C(C)(C)Nc1nc(NC2C3CC4CC(C3)CC2C4)nc(NC(C)(C)C(C)(C)C)n1 (centres unmarked) ?
OUTPUT: 148 grams

INPUT: Quick one: Mean Weight Gain (grams) Day 14 for `CC(C)(C)Nc1nc(NC(C)(C)C)nc(N2CC3CCC(CC3)C2)n1` ?
OUTPUT: 87 grams

INPUT: Quick one: Mean Weight Gain (grams) Day 14 for `CC(C)(C)CC(C)(C)Nc1nc(Nc2ccc(F)cc2)nc(N2CC3CCC(CC3)C2)n1` ?
OUTPUT: 68 grams

INPUT: Quick one: Mean Weight Gain (grams) Day 14 for CC(C)(C)C(C)(C)Nc1nc(N[C@H]2C[C@@H]3CC[C@H]2C3)nc(NC(C)(C)C(C)(C)C)n1 (relative stereo) ?
OUTPUT: 97 grams

INPUT: Quick one: Mean Weight Gain (grams) Day 14 for `CC(C)(C)CC(C)(C)Nc1nc(NC(C)(C)C)nc(N2CC3CCC(CC3)C2)n1` ?
OUTPUT: 85 grams

***
INPUT: Quick one: Mean Weight Gain (grams) Day 14 for `CC(=O)Oc1ccccc1C(=O)O` ?
OUTPUT: 56 grams

INPUT: Quick one: Mean Weight Gain (grams) Day 14 for `CCCCNc1nc(N2CC3CCC(CC3)C2)nc(N2CC3CCC(CC3)C2)n1` ?
OUTPUT: 82 grams

INPUT: Quick one: Mean Weight Gain (grams) Day 14 for `CC(C)(C)CC(C)(C)Nc1nc(NC(C)(C)C(C)(C)C)nc(N2CC3CCC(CC3)C2)n1` ?
OUTPUT: 66 grams

INPUT: Quick one: Mean Weight Gain (grams) Day 14 for `CC(C)(C)C(C)(C)Nc1nc(NC23CC4CC(CC(C4)C2)C3)nc(NC(C)(C)C(C)(C)C)n1` ?
OUTPUT: 94 grams

INPUT: Quick one: Mean Weight Gain (grams) Day 14 for `CC(C)(C)CC(C)(C)Nc1nc(NC(C)(C)CC(C)(C)C)nc(N2CC3CCC(CC3)C2)n1` ?
OUTPUT: 76 grams
